Target: T1, FZD8 CRD (Homo sapiens, UniProt Q9H461)
T1 construct: K31-D155; GPI anchor signal (C); expressed in transfected cells; host or cells: CHO cells, lentiviral pLenti-puro
T1 sequence (Q9H461 31-155): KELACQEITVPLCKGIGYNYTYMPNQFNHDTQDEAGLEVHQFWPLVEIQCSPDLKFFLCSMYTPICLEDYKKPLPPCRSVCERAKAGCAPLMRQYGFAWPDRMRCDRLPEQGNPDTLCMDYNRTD
Experiment: Immunofluorescence of anti-FZD5 Fab binding to CHO cells overexpressing Frizzled CRD
Set-up: key: −: no binding; +: very weak binder; ++: weak binder; +++: good binder; ++++: very good binder
RESULT_TYPE: Immunofluorescence binding, Frizzled CRD overexpressed on CHO cells: FZD8

[[record]]
molecule = "Fab-2898: anti-FZD5 Fab with antibody variable region Fv-2898; CDR SEQ ID NOs: 35, 36, 37, 76, 113, 152 (antibody, V domains shown) VH: EVQLVESGGGLVQPGGSLRLSCAASGFNIYSYSMHWVRQAPGKGLEWVASIYSSSGSTSYADSVKGRFTISADTSKNTAYLQMNSLRAEDTAVYYCARAVWGLDYWGQGTLVTVSS VL: DIQMTQSPSSLSASVGDRVTITCRASQSVSSAVAWYQQKPGKAPKLLIYSASSLYSGVPSRFSGSRSGTDFTLTISSLQPEDFATYYCQQWWGYYSLITFGQGTKVEIK"
result = "+"

[[record]]
molecule = "Fab-2912: anti-FZD5 Fab with antibody variable region Fv-2912; CDR SEQ ID NOs: 35, 36, 51, 90, 127, 164 (antibody, V domains shown) VH: EVQLVESGGGLVQPGGSLRLSCAASGFNISYSYIHWVRQAPGKGLEWVASISSSSGYTSYADSVKGRFTISADTSKNTAYLQMNSLRAEDTAVYYCARTVRGSKKPYFSGWAMDYWGQGTLVTVSS VL: DIQMTQSPSSLSASVGDRVTITCRASQSVSSAVAWYQQKPGKAPKLLIYSASSLYSGVPSRFSGSRSGTDFTLTISSLQPEDFATYYCQQFYFPYLITFGQGTKVEIK"
result = "+"

[[record]]
molecule = "Fab-2899: anti-FZD5 Fab with antibody variable region Fv-2899; CDR SEQ ID NOs: 35, 36, 38, 77, 114, 153 (antibody, V domains shown) VH: EVQLVESGGGLVQPGGSLRLSCAASGFNLYYYYMHWVRQAPGKGLEWVASIYPSSGSTSYADSVKGRFTISADTSKNTAYLQMNSLRAEDTAVYYCARGALDYWGQGTLVTVSS VL: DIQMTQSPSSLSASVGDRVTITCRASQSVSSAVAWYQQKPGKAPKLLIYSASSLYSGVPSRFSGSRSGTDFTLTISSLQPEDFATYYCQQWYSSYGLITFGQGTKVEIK"
result = "+"

[[record]]
molecule = "Fab-2929: anti-FZD5 Fab with antibody variable region Fv-2929; CDR SEQ ID NOs: 35, 36, 68, 106, 144, 162 (antibody, V domains shown) VH: EVQLVESGGGLVQPGGSLRLSCAASGFNISYYYIHWVRQAPGKGLEWVASIYPSSSSTSYADSVKGRFTISADTSKNTAYLQMNSLRAEDTAVYYCARGAMDYWGQGTLVTVSS VL: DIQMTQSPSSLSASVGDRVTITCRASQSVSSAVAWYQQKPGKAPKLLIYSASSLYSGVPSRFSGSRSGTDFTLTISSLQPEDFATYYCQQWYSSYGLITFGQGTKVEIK"
result = "−"


Origin of the recorded values: patent US20210253718A1
